# Test system: HCC-2998 colon
# assay.notes: NCI-60 one-dose screen, 48 h (100 = growth as untreated, 0 = no growth, -100 = all killed)
# condition.summary: 10 µM unless noted
The panel holds about 83,000 compounds, 20% with a hit somewhere; the sample as a whole holds those more often.
Response field label: string, one of Met (growth strictly below 50%) or Not met.

Check out these entries, answers already filled in.
smiles.code	group
COc1cc(/C=N/Nc2ccc(Br)cc2)cc(OC)c1OC	Met
C[n+]1ccc(CCc2c[nH]c3ccccc23)cc1	Not met
Cc1ccc(S(=O)(=O)Oc2ccc3sc4cccc(NCCN(C)C)c4c(=O)c3c2)cc1	Met
COc1cccc(C(=O)NNc2nc(Cl)nc(Cl)n2)c1	Not met

// switching to the query compound
Please check: growth for [2H]C([2H])([2H])Oc1ccc(F)cc1/C=C/C(=O)/C=C(O)/C=C/c1cc(F)ccc1OC([2H])([2H])[2H] , strictly under 50% or not?
Not met

----------
# Test system: SK-MEL-28 melanoma
# assay.notes: NCI-60 one-dose screen, 48 h (100 = growth as untreated, 0 = no growth, -100 = all killed)
# condition.summary: 10 µM unless noted
Compounds without any hit were thinned out: in the full panel of roughly 83,000, 20% have a hit. Calls of active or inactive are those of the source. The calls were made as follows: active = growth percent below 10; inactive = the rest.
Measured growth by item

compound	tested.system	growth
NC(=O)c1cccc([C@@H]2O[C@H](CO)[C@@H](O)[C@H]2O)c1	SK-MEL-28 melanoma	62.1% (inactive)
CCN(CC)CCCN1C(=O)c2c(c(C)c3c(oc4ccc(O)cc43)c2C)C1=O	SK-MEL-28 melanoma	81.8% (inactive)
O=C(c1c[nH]c2ccccc12)c1n[nH]c(=S)n1-c1cccc(Br)c1	SK-MEL-28 melanoma	105% (inactive)
Cc1ccc(C)c2c(C)c(C(=O)Nc3cccc(-n4cccn4)c3)oc12	SK-MEL-28 melanoma	86.7% [50 µM] (inactive)
Cc1c(CN)cc(-c2ccc(Cl)cc2)n1-c1ccccc1	SK-MEL-28 melanoma	114% (inactive)

Consider the compound shown here: C#CCOc1cccc(-c2ncnc3cc(NC(=O)C=C)ccc23)c1 What is its recorded growth?
70.5% (inactive)

Consider the compound shown here: COc1cc(C(=O)c2c(-c3ccccc3)oc3c(OC)cccc23)cc(OC)c1OC What is its recorded growth?
59.9% (inactive)

Consider the compound shown here: O=C(NC1CC(F)C1)c1cc2cccnc2n1-c1ccc(Cl)c(Cl)c1 (stereo not given) What is its recorded growth?
117% (inactive)

Consider the compound shown here: O=P(O)(O)OCC1OC(n2cnc3c(NCc4ccco4)ncnc32)C(O)C1O (stereo not given) What is its recorded growth?
87% (inactive)

Consider the compound shown here: CCCCNC(=O)Oc1ccc(/C(=C(/C)Cc2ccc(OC)cc2)c2ccc(OCCN3CCCCC3)cc2)cc1 What is its recorded growth?
78.2% (inactive)

Consider the compound shown here: CC1(C)CC(=O)c2c(nn(-c3ccc(Br)cc3)c2-c2cn(-c3ccccc3)nc2-c2cccnc2)C1 What is its recorded growth?
113% (inactive)

Consider the compound shown here: CC1(C)N=C(N)N=C(N)N1c1ccc(CCCCc2ccccc2)c(Cl)c1 What is its recorded growth?
25.2% (inactive)

Consider the compound shown here: COc1ccc(/C=C/C(=O)c2ccc(NC(=O)CSc3nc4c([nH]3)c(=O)n(C)c(=O)n4C)cc2)cc1OC What is its recorded growth?
95.7% (inactive)

Consider the compound shown here: N[C@H]1CCC[C@@H]1NCCCCN1C(=O)c2cccc3cc([N+](=O)[O-])cc(c23)C1=O What is its recorded growth?
93.6% (inactive)

Consider the compound shown here: CO[C@H]1CC(=O)n2c3ccccc3c3c4c(c5c6ccccc6n1c5c32)C(=O)NC4=O What is its recorded growth?
39.9% (inactive)

Consider the compound shown here: CC(=O)OC(c1ccccc1)C1CCOC1=O (stereo not given) What is its recorded growth?
113% (inactive)
